tested on: rabbit red blood cells; experiment: Hemolytic activity; format: cell-based; conditions: 64 μg/mL; relative to Triton X-100
Where a SMILES comes first, the peptide text is derived from it. [ ]: non-standard residue; d: D form. The star is where a group is joined. ξ: configuration not given here. Cha = N[C@@H](CC1CCCCC1)C(=O)O; Thr(3ξ) = CC(O)[C@H](N)C(=O)O; Decanoyl = CCCCCCCCCC(=O)*; Heptanoyl = CCCCCCC(=O)*; Octanoyl = CCCCCCCC(=O)*; Orn = NCCC[C@H](N)C(=O)O; Dab = NCC[C@H](N)C(=O)O; Cbz = O=C(OCc1ccccc1)*; Hexanoyl = CCCCCC(=O)*; Bz = O=C(c1ccccc1)*
Documented Hemolysis across a set of compounds
A number alone suffices; assume %.

Example entries and their recorded answers appear below.
>  <compound>
CCCCCCCCCC(=O)N[C@@H](CCN)C(=O)N[C@H](C(=O)N[C@H](C(=O)N[C@H](CC(C)C)C(=O)N[C@@H](CC(C)C)C(=O)N[C@@H](CCN)C(=O)N[C@@H](C(=O)N[C@@H](CC(C)C)C(=O)N[C@@H](CO)C(N)=O)C(C)C)C(C)O)[C@@H](C)CC (stereo partly drawn) [Analogue 13] (Decanoyl-[Dab]I[Thr(3ξ)][dL]L[Dab][dV]LS-NH2)

>  <reading.unit>
%

>  <Hemolysis>
10.0

$$$$
>  <compound>
CCCCCCC(=O)N[C@@H](CCN)C(=O)N[C@@H](Cc1ccccc1)C(=O)N[C@@H](CCN)C(=O)N[C@H](Cc1ccccc1)C(=O)N[C@@H](CC(C)C)C(=O)N[C@@H](CCN)C(=O)N[C@@H](C(=O)N[C@@H](CC(C)C)C(=O)N[C@@H](CO)C(N)=O)C(C)C [Analogue 4] (Heptanoyl-[Dab]F[Dab][dF]L[Dab][dV]LS-NH2)

>  <reading.unit>
%

>  <Hemolysis>
0.60

$$$$
>  <compound>
CC(C)C[C@H](NC(=O)[C@@H](Cc1ccccc1)NC(=O)[C@H](CCN)NC(=O)[C@H](Cc1ccccc1)NC(=O)[C@H](CCN)NC(=O)[C@@H](N)CC1CCCCC1)C(=O)N[C@@H](CCN)C(=O)N[C@H](CC(C)C)C(=O)N[C@@H](Cc1ccccc1)C(=O)N[C@@H](CO)C(N)=O [Analogue 17] (H-[Cha][Dab]F[Dab][dF]L[Dab][dL]FS-NH2)

>  <reading.unit>
%

>  <Hemolysis>
11.02

$$$$
>  <compound>
CCCCCCCC(=O)N[C@@H](CCN)C(=O)N[C@H](C(=O)N[C@@H](CCN)C(=O)N[C@H](Cc1ccccc1)C(=O)N[C@@H](CC(C)C)C(=O)N[C@@H](CCN)C(=O)N[C@@H](C(=O)N[C@@H](CC(C)C)C(=O)N[C@@H](CCN)C(N)=O)C(C)C)[C@@H](C)CC [Analogue 9] (Octanoyl-[Dab]I[Dab][dF]L[Dab][dV]L[Dab]-NH2)

>  <reading.unit>
%

>  <Hemolysis>
0.73

$$$$
>  <compound>
CCCCCCC(=O)N[C@@H](CCN)C(=O)N[C@@H](Cc1ccccc1)C(=O)N[C@@H](CCN)C(=O)N[C@H](Cc1ccccc1)C(=O)N[C@@H](CC(C)C)C(=O)N[C@@H](CCN)C(=O)N[C@H](CC(C)C)C(=O)N[C@@H](CC(C)C)C(=O)N[C@@H](CO)C(N)=O [Analogue 6] (Heptanoyl-[Dab]F[Dab][dF]L[Dab][dL]LS-NH2)

>  <reading.unit>
%

>  <Hemolysis>
2.03

$$$$

The measured Hemolysis associated with CCCCCCCCCC(=O)N[C@@H](CCN)C(=O)N[C@H](C(=O)N[C@@H](CCN)C(=O)N[C@H](Cc1ccccc1)C(=O)N[C@@H](CC(C)C)C(=O)N[C@@H](CCN)C(=O)N[C@@H](C(=O)N[C@@H](CC(C)C)C(=O)N[C@@H](CO)C(N)=O)C(C)C)[C@@H](C)CC [Analogue 12] (Decanoyl-[Dab]I[Dab][dF]L[Dab][dV]LS-NH2) reads 73.4

The measured Hemolysis associated with CC[C@H](C)[C@H](NC(=O)[C@H](CCN)NC(=O)OCc1ccccc1)C(=O)N[C@@H](CCN)C(=O)N[C@H](Cc1ccccc1)C(=O)N[C@@H](CC(C)C)C(=O)N[C@@H](CCN)C(=O)N[C@@H](C(=O)N[C@@H](CC(C)C)C(=O)N[C@@H](CO)C(N)=O)C(C)C [Analogue 15] (Cbz-[Dab]I[Dab][dF]L[Dab][dV]LS-NH2) reads 0.54

The measured Hemolysis associated with CCCCCCC(=O)N[C@@H](CCN)C(=O)N[C@H](C(=O)N[C@@H](CCN)C(=O)N[C@H](Cc1ccccc1)C(=O)N[C@@H](CC(C)C)C(=O)N[C@@H](CCN)C(=O)N[C@H](CC(C)C)C(=O)N[C@@H](CC(C)C)C(=O)N[C@@H](CO)C(N)=O)[C@@H](C)CC [Analogue 5] (Heptanoyl-[Dab]I[Dab][dF]L[Dab][dL]LS-NH2) reads 4.86

The measured Hemolysis associated with CC[C@H](C)[C@H](NC(=O)[C@H](CCN)NC(=O)c1ccccc1)C(=O)N[C@@H](CCN)C(=O)N[C@H](Cc1ccccc1)C(=O)N[C@@H](CC(C)C)C(=O)N[C@@H](CCN)C(=O)N[C@@H](C(=O)N[C@@H](CC(C)C)C(=O)N[C@@H](CO)C(N)=O)C(C)C [Analogue 14] (Bz-[Dab]I[Dab][dF]L[Dab][dV]LS-NH2) reads 1.14

The measured Hemolysis associated with CCCCCCCC(=O)N[C@@H](CCCN)C(=O)N[C@H](C(=O)N[C@@H](CCCN)C(=O)N[C@H](Cc1ccccc1)C(=O)N[C@@H](CC(C)C)C(=O)N[C@@H](CCCN)C(=O)N[C@@H](C(=O)N[C@@H](CC(C)C)C(=O)N[C@@H](CO)C(N)=O)C(C)C)[C@@H](C)CC [Analogue 11] (Octanoyl-[Orn]I[Orn][dF]L[Orn][dV]LS-NH2) reads 0.69

The measured Hemolysis associated with CCCCCCCC(=O)N[C@@H](CCN)C(=O)N[C@H](C(=O)N[C@@H](CCN)C(=O)N[C@H](Cc1ccccc1)C(=O)N[C@@H](CC(C)C)C(=O)N[C@@H](CCN)C(=O)N[C@@H](C(=O)N[C@@H](CC(C)C)C(=O)N[C@@H](CO)C(N)=O)C(C)C)[C@@H](C)CC [Analogue 8, C8-Pat] (Octanoyl-[Dab]I[Dab][dF]L[Dab][dV]LS-NH2) reads 6.18

The measured Hemolysis associated with CCCCCC(=O)N[C@@H](CCN)C(=O)N[C@H](C(=O)N[C@@H](CCN)C(=O)N[C@H](Cc1ccccc1)C(=O)N[C@@H](CC(C)C)C(=O)N[C@@H](CCN)C(=O)N[C@@H](C(=O)N[C@@H](CC(C)C)C(=O)N[C@@H](CO)C(N)=O)C(C)C)[C@@H](C)CC [Analogue 1] (Hexanoyl-[Dab]I[Dab][dF]L[Dab][dV]LS-NH2) reads 0.08
